test system: HepG2; assay: cells; conditions: Homo sapiens, HepG2, 48 h
Description: Cytotoxicity against human HepG2 cells after 48 hrs by MTT assay
Assay metric: IC50 (µM)
Numbers only, in µM.

Quick request: IC50 for each listed item, please.
1. CCOP(=O)(OCC)C(NC(=O)C(C)Oc1ccc2c(c1O)C(=O)c1ccccc1C2=O)c1ccc(Cl)cc1 (stereo not given)
2. CCOP(=O)(OCC)C(NC(=O)C(C)Oc1ccc2c(c1O)C(=O)c1ccccc1C2=O)c1cccc2ccccc12 (stereo not given)

[reply]
31.8
40.5

* * *

Exercise: state measured pIC50 for each of the compounds provided.
test system: HepG2; assay: cells; conditions: Homo sapiens, HepG2, 48 h
Give bare numbers, as −log10 of the molar value.

>>> value_measured("CCOP(=O)(OCC)C(NC(=O)COc1ccc2c(c1O)C(=O)c1ccccc1C2=O)c1ccccc1 (configuration not stated)")
4.38

Your task in this section: give pIC50 for each listed record.
1. CCOP(=O)(OCC)C(NC(=O)C(C)Oc1ccc2c(c1O)C(=O)c1ccccc1C2=O)c1ccccc1F (configuration not stated)
2. CCOP(=O)(OCC)C(NC(=O)C(C)Oc1ccc2c(c1O)C(=O)c1ccccc1C2=O)c1ccc(F)cc1 (configuration not stated)
3. CCOP(=O)(OCC)C(NC(=O)C(C)Oc1ccc2c(c1O)C(=O)c1ccccc1C2=O)c1ccc(Br)cc1 (configuration not stated)

[reply]
1. 4.68
2. 4.60
3. 4.65

Here are 3 compounds. What values of pIC50 were reported for them?
1. CCOP(=O)(OCC)C(NC(=O)C(C)Oc1ccc2c(c1O)C(=O)c1ccccc1C2=O)c1ccccc1Br (configuration not stated)
2. CCOP(=O)(OCC)C(NC(=O)COc1ccc2c(c1O)C(=O)c1ccccc1C2=O)c1cccc(C)c1 (configuration not stated)
3. CCOP(=O)(OCC)C(NC(=O)C(C)Oc1ccc2c(c1O)C(=O)c1ccccc1C2=O)c1ccc2ccccc2c1 (configuration not stated)

[reply]
1. 4.62
2. 4.54
3. 4.41

* * *

tested on: A549; test: cells; details: Homo sapiens, A549, 48 h
Description: Cytotoxicity against human A549 cells after 48 hrs by MTT assay
Consider the following molecules; for each one, report its pIC50.
One number for each entry, as −log10 of the molar value.

>>> value_measured("CCOP(=O)(OCC)C(NC(=O)C(C)Oc1ccc2c(c1O)C(=O)c1ccccc1C2=O)c1ccccc1 (centres undefined)")
4.46
>>> value_measured("CCOP(=O)(OCC)C(NC(=O)C(C)Oc1ccc2c(c1O)C(=O)c1ccccc1C2=O)c1ccc2ccccc2c1 (centres undefined)")
4.60
>>> value_measured("CCOP(=O)(OCC)C(NC(=O)C(C)Oc1ccc2c(c1O)C(=O)c1ccccc1C2=O)c1ccc(OC)cc1 (centres undefined)")
4.47
>>> value_measured("CCOP(=O)(OCC)C(NC(=O)COc1ccc2c(c1O)C(=O)c1ccccc1C2=O)c1ccccc1Br (centres undefined)")
4.45

Provide pIC50 values for the following items, in order.
1. CCOP(=O)(OCC)C(NC(=O)C(C)Oc1ccc2c(c1O)C(=O)c1ccccc1C2=O)c1ccc(Cl)cc1 (centres undefined)
2. CCOP(=O)(OCC)C(NC(=O)C(C)Oc1ccc2c(c1O)C(=O)c1ccccc1C2=O)c1ccccc1Cl (centres undefined)

[reply]
[4.97, 4.99]

List the reported pIC50 of each molecule below.
1. CCOP(=O)(OCC)C(NC(=O)C(C)Oc1ccc2c(c1O)C(=O)c1ccccc1C2=O)c1ccc(C)cc1 (centres undefined)
2. CCOP(=O)(OCC)C(NC(=O)C(C)Oc1ccc2c(c1O)C(=O)c1ccccc1C2=O)c1ccc(F)cc1 (centres undefined)
3. CCOP(=O)(OCC)C(NC(=O)C(C)Oc1ccc2c(c1O)C(=O)c1ccccc1C2=O)c1cccc(C)c1 (centres undefined)
4. CCOP(=O)(OCC)C(NC(=O)COc1ccc2c(c1O)C(=O)c1ccccc1C2=O)c1ccccc1OC (centres undefined)
5. CCOP(=O)(OCC)C(NC(=O)COc1ccc2c(c1O)C(=O)c1ccccc1C2=O)c1ccccc1F (centres undefined)
6. CCOP(=O)(OCC)C(NC(=O)C(C)Oc1ccc2c(c1O)C(=O)c1ccccc1C2=O)c1cccc2ccccc12 (centres undefined)
7. CCOP(=O)(OCC)C(NC(=O)C(C)Oc1ccc2c(c1O)C(=O)c1ccccc1C2=O)c1cccc(Br)c1 (centres undefined)

[reply]
4.42
4.71
4.59
4.41
4.42
4.80
4.48
